Entry source: patent USRE47150

Catalogue of kon values
# TARGET_ENTITY: T1, mouse tissue factor pathway inhibitor (TFPI) (mouse, UniProt O54819 29-289, limits assumed)
# T1 construct: bought; also called mTFPI; murine TFPI
# T1 sequence (looked up): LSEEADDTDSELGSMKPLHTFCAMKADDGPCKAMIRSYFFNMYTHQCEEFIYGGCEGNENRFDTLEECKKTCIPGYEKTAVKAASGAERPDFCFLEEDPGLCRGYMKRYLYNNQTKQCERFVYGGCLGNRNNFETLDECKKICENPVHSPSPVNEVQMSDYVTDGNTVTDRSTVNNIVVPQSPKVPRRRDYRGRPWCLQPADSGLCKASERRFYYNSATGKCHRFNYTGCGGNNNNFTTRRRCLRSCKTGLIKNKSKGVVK
# ASSAY_PROCEDURE: SPR, TFPI immobilized
Expressed in M⁻¹ s⁻¹, but write only the number.

Examples from the recorded data:
>  <BINDER>
2A8-g200 (HC Q1E+R30S+S35D+S55R+S56G+K99L/LC D1S+I2Y+A13S+S21T+R28P+N29K+Y48F+N51V+E80M+S89A+D91W+D92S+G93S+V94T) (Fab, V domains shown) VH: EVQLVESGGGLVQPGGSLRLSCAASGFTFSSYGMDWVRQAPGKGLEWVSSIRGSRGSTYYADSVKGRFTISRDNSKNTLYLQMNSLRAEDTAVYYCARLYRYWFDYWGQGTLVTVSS VL: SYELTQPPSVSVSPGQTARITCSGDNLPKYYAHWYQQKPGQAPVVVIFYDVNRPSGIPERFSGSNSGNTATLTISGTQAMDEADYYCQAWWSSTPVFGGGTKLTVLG

>  <kon [M⁻¹ s⁻¹]>
1.15e+06

$$$$
>  <BINDER>
2A8 wild-type Fab (Fab, V domains shown, Fab with c-myc (or HA, or none) and 6xHis tag at the C-terminus of the heavy chain; also called 2A8wt; 2A8 wt) VH: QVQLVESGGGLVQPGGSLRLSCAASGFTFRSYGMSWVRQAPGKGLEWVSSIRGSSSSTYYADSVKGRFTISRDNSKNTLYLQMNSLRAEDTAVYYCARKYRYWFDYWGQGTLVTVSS VL: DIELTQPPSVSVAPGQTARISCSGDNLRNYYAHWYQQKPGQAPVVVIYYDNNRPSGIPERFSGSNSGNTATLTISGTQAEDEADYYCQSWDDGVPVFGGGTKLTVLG

>  <kon [M⁻¹ s⁻¹]>
940000

$$$$
>  <BINDER>
2A8-216 (HC S31V+I51D+S55R+K99V/LC Y48F+D91L+V96W) (Fab, V domains shown) VH: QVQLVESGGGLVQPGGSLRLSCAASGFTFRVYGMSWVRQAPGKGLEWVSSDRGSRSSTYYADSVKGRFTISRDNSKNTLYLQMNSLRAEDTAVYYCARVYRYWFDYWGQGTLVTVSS VL: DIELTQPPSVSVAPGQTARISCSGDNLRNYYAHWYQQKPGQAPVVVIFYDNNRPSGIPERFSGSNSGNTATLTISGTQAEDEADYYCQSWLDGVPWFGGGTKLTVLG

>  <kon [M⁻¹ s⁻¹]>
4.19e+06

$$$$
>  <BINDER>
2A8-g216 (HC S31V+I51D+S55R+K99V/LC D1S+I2Y+A13S+S21T+R28P+N29K+Y48F+N51S+E80M+D91L+D92S+V94T+V96W) (Fab, V domains shown) VH: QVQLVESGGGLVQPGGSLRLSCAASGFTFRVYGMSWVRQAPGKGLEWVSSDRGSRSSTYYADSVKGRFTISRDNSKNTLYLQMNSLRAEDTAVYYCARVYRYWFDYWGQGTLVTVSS VL: SYELTQPPSVSVSPGQTARITCSGDNLPKYYAHWYQQKPGQAPVVVIFYDSNRPSGIPERFSGSNSGNTATLTISGTQAMDEADYYCQSWLSGTPWFGGGTKLTVLG

>  <kon [M⁻¹ s⁻¹]>
984000

$$$$

Task: Reported kon, binder 2A8-227 (HC S35D+K99L/LC Y48F+D91L+V96W) (Fab, V domains shown) VH: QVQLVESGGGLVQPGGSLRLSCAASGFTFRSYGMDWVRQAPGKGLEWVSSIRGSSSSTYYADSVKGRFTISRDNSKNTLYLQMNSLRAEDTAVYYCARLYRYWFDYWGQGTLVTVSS VL: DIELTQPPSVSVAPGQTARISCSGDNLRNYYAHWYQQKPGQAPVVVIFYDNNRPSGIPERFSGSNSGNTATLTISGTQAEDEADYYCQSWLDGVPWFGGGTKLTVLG : ____
Result: 6.91e+06
